Hey, just so you know, these numbers are from patent US20030068675.

targetEntity: T1, ZFP SBS#548 (synthetic)
T1 chain: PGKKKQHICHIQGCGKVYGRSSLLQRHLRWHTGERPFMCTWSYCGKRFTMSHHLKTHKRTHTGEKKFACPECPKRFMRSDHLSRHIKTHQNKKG
testSummary: EMSA
settings: tags: MBP fusion
measuredProperty: Kd

*Q* Please report the recorded Kd for GAGTGTGTGA (dsDNA) DNA 1: GAGTGTGTGA DNA 2: TCACACACTC .
*A* 0.5 µM
